Entries and their Activity
- assay target: Penicillin-binding protein 2x (Streptococcus pneumoniae serotype 4 (strain ATCC BAA-334 / TIGR4)) (UniProt P14677)
- Sequence (whole entry): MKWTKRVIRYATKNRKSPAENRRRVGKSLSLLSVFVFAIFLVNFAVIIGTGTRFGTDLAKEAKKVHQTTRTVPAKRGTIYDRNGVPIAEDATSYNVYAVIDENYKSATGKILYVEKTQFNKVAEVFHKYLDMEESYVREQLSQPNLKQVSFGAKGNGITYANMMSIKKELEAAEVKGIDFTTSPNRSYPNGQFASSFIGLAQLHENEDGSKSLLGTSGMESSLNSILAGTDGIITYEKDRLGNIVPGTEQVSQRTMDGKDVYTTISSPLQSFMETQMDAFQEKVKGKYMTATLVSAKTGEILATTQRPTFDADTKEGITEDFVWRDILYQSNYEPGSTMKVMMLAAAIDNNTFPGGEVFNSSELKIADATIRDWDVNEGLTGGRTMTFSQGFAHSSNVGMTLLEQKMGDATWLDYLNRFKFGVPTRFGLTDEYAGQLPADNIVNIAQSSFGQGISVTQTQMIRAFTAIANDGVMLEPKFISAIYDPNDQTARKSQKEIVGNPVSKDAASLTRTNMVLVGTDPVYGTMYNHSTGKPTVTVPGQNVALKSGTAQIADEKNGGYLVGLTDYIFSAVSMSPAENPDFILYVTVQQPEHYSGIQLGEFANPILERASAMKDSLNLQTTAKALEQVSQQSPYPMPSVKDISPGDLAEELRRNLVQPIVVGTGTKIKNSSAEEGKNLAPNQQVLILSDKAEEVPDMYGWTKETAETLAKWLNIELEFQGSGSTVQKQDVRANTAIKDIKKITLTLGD
- protocol: Inhibition of penicillin-resistant Streptococcus pneumoniae 5204 PBP2x using S2d as substrate assessed as residual activity at 1 mM incubated for 4 hrs prior to substrate addition by DNTB-based spectrophotometry in the presence of triton X 100
Give the value, in units of %, as a plain number.

// known answers, use as guide
structure | readout label | data value
O=C(CCC1CCCC1)NCB(O)O | Activity | 98
O=C(Cc1ccccc1)NCB(O)O | Activity | 97

Requested field: Activity. Item: O=C(NCB(O)O)c1ccccc1F 106

Requested field: Activity. Item: COc1ccc(C(=O)NCB(O)O)c(OC)c1 97

Requested field: Activity. Item: COc1ccc(C(=O)NCB(O)O)cc1OC 98

Requested field: Activity. Item: O=C(NCB(O)O)c1ccccc1Cl 70

Requested field: Activity. Item: O=C(NCB(O)O)c1ccccc1[N+](=O)[O-] 108

Requested field: Activity. Item: O=C(NCB(O)O)c1c(F)cccc1F 86

Requested field: Activity. Item: O=C(Cc1ccc(Cl)cc1)NCB(O)O 82

All values here come from ChEMBL document CHEMBL2034818.
